ASSAY SYSTEM: IRAK4 (Homo sapiens, UniProt Q9NWZ3)
Construct: endogenous in cells; host or cells: OCI-LY10
Sequence (Q9NWZ3 whole entry): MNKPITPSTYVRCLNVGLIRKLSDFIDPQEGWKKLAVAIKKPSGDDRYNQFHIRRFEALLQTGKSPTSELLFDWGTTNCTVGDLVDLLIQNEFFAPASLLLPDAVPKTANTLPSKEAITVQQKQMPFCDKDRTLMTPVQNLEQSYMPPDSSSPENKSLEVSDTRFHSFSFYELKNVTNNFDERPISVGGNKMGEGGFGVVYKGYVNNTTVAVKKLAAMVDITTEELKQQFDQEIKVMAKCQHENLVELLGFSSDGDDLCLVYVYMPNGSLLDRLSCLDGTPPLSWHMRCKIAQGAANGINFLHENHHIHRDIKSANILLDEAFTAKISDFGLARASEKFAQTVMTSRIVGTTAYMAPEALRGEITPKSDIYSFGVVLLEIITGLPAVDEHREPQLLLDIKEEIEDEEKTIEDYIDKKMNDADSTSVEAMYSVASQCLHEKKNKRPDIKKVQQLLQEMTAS
TEST PROTOCOL: IRAK4 MSD degradation in OCI-LY10
Type: cell-based
CONDITION: OCI-LY10 cells, 24 hrs, Meso Scale Discovery

COMPOUND	DC50
Cn1c(=O)n(C2CCC(=O)NC2=O)c2cccc([C@@H]3CCN(C[C@H]4CC[C@H](n5cc6cc(NC(=O)c7cnnc(C(F)(F)F)c7)ccc6n5)CC4)C[C@H]3F)c21 (stereo partly shown)	> 200 nM
COc1cc2nc([C@H]3CC[C@H](CN4CC[C@@H](c5cccc6c5n(C)c(=O)n6C5CCC(=O)NC5=O)[C@H](F)C4)CC3)oc2cc1NC(=O)c1cncc(C(F)(F)F)n1 (stereo partly shown)	10 to 100 nM
Cn1c(=O)n(C2CCC(=O)NC2=O)c2cccc([C@@H]3CCN(C[C@H]4CC[C@H](c5cn6cc(NC(=O)c7cccc(C(F)(F)F)n7)ccc6n5)CC4)C[C@H]3F)c21 (stereo partly shown)	< 10 nM
Cn1c(=O)n(C2CCC(=O)NC2=O)c2cccc(N3CC4(CCN(C[C@H]5CC[C@H](c6nc7cc(C(C)(C)O)c(NC(=O)c8cncc(C#N)c8)cc7s6)CC5)CC4(F)F)C3)c21 (stereo partly shown)	10 to 100 nM
Cn1c(=O)n(C2CCC(=O)NC2=O)c2cccc([C@@H]3CCN(C[C@H]4CC[C@H](n5cc6cc(NC(=O)c7cncc(C(F)(F)F)n7)ccc6n5)CC4)CC3(F)F)c21 (single isomer, unassigned)	< 10 nM
C[C@H]1CN(c2ccn3ncc(C(=O)Nc4cn([C@H]5CC[C@H](CN(C)[C@H]6CCN(c7cccc8c7n(C)c(=O)n8C7CCC(=O)NC7=O)C[C@@H]6F)CC5)nc4C(F)F)c3n2)CCO1 (stereo partly shown)	< 10 nM
O=C1CCN(c2cncc3c(N4CC(CO[C@@H]5CCN(C[C@H]6CC[C@H](n7cc(NC(=O)c8cnn9ccc(N%10C[C@H]%11C[C@@H]%10CO%11)nc89)c(C(F)F)n7)CC6)C[C@@H]5F)C4)cccc23)C(=O)N1	< 10 nM
CC(C)(O)c1cc2nn([C@H]3CC[C@H](CN4CCC5(CCN(c6cccc7c(N8CCC(=O)NC8=O)cncc67)CC5)C(F)(F)C4)CC3)cc2cc1NC(=O)c1cncc(C#N)c1	< 10 nM
Cc1nn(C2CCC(=O)NC2=O)c2cccc(N3CC(O)(CN4CCN(C[C@H]5CC[C@H](n6cc(NC(=O)c7cnn8ccc(N9C[C@H]%10C[C@@H]9CO%10)nc78)c(C(F)F)n6)CC5)CC4)C3)c12 (stereo partly shown)	< 10 nM
Cn1c(=O)n(C2CCC(=O)NC2=O)c2cccc(N3CCC4(CCN(C[C@H]5CC[C@H](n6cc7cc(NC(=O)c8cncc(C(F)(F)F)c8)c(C(C)(C)O)cc7n6)CC5)CC4(F)F)CC3)c21 (stereo partly shown)	< 10 nM
Cn1c(=O)n(C2CCC(=O)NC2=O)c2cccc(N3CC4(CCN(C[C@H]5CC[C@H](c6nc7cc(C(C)(C)O)c(NC(=O)c8cncc(C#N)c8)cc7o6)CC5)CC4(F)F)C3)c21 (stereo partly shown)	> 200 nM
Cn1nc(C2CCC(=O)NC2=O)c2cccc([C@@H]3CCN(C[C@H]4CC[C@H](n5cc6cc(NC(=O)c7cncc(C(F)(F)F)n7)ccc6n5)CC4)CC3(F)F)c21 (single isomer, unassigned)	< 10 nM
COc1cc2nn([C@H]3CC[C@H](CN4CC[C@@H](c5cccc6c5n(C)c(=O)n6C5CCC(=O)NC5=O)[C@H](F)C4)CC3)cc2cc1NC(=O)c1cncc(C(F)(F)F)c1 (stereo partly shown)	< 10 nM
Cn1c(=O)n(C2CCC(=O)NC2=O)c2cccc(N3CC(COC[C@H]4CC[C@H](n5cc6cc(NC(=O)c7cccc(C(F)(F)F)n7)ccc6n5)CC4)C3)c21 (stereo partly shown)	10 to 100 nM
CN(C[C@H]1CC[C@H](c2nc3cc(C(C)(C)O)c(NC(=O)c4cncc(C(F)(F)F)n4)cc3o2)CC1)[C@H]1CCN(c2cccc3c2n(C)c(=O)n3C2CCC(=O)NC2=O)C[C@H]1F (single isomer, unassigned)	< 10 nM
O=C1CCN(c2cncc3c(N4CC(CN5CCN(C[C@H]6CC[C@H](n7cc(NC(=O)c8cnn9ccc(N%10C[C@H]%11C[C@@H]%10CO%11)nc89)c(C(F)F)n7)CC6)CC5)C4)cccc23)C(=O)N1	< 10 nM
COc1cc2nn([C@H]3CC[C@H](CN(C)[C@H]4CCN(c5cccc6c5n(C)c(=O)n6C5CCC(=O)NC5=O)C[C@@H]4F)CC3)cc2cc1NC(=O)c1cccc(C(F)(F)F)n1 (stereo partly shown)	< 10 nM
CN(C[C@H]1CC[C@H](c2cc3cc(NC(=O)c4cncc(C(F)(F)F)n4)ccn3n2)CC1)[C@H]1CCN(c2cccc3c2n(C)c(=O)n3C2CCC(=O)NC2=O)C[C@H]1F (single isomer, unassigned)	10 to 100 nM
Cn1c(=O)n(C2CCC(=O)NC2=O)c2cccc([C@@H]3CCN(C[C@H]4CC[C@H](n5cc6cc(NC(=O)c7cncc(C(F)(F)F)n7)c(Cl)cc6n5)CC4)C[C@H]3F)c21 (stereo partly shown)	< 10 nM

meta.source: patent US20250059164A1
